Ref: ChEMBL document CHEMBL3351409

Kindly state pIC50 for each of the entries shown.
target: Inosine-5'-monophosphate dehydrogenase (Bacillus anthracis)
Sequence (A0A6L8P2U9 whole entry): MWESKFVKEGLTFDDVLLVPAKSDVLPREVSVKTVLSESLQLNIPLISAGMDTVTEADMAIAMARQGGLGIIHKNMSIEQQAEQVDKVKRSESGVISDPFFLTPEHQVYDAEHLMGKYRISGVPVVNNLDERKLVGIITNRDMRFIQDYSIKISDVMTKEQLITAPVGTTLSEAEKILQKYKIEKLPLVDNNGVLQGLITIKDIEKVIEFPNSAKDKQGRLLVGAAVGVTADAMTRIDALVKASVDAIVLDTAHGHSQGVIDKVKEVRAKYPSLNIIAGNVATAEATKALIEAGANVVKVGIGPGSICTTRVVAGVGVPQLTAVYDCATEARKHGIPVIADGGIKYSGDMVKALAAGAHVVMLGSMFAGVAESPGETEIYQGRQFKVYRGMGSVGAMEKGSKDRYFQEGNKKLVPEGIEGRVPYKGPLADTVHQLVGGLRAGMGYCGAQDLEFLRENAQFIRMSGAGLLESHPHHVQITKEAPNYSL
Give bare numbers, as −log10 of the molar value.

Some molecules with recorded pIC50:
molecule	pIC50
C[C@H](Oc1cccc(Cl)c1Cl)C(=O)Nc1cccc(NC(=O)c2ccncc2)c1	6.52
O=C(Nc1ccc(Cl)cc1)C(Oc1cccc2ccccc12)c1ccccc1 (stereo unspecified)	5.62
C[C@H](Oc1cccc(Cl)c1Cl)C(=O)Nc1ccc2nc(-c3ccncc3)oc2c1	8.00
C[C@H](Nc1cccc(Cl)c1Cl)C(=O)Nc1ccc2oc(-c3ccncc3)nc2c1	8.30
CC(Oc1cccc([N+](=O)[O-])c1Cl)C(=O)Nc1ccc2oc(-c3ccncc3)nc2c1 (stereo unspecified)	7.85

For each of the molecules below, state pIC50.
1. C[C@H](Oc1cccc(Cl)c1Cl)C(=O)Nc1ccc2oc(-c3ccncc3)nc2c1
2. C/C(=N\O)c1cccc(C(C)(C)NC(=O)Nc2ccc(Cl)c(C(F)(F)F)c2)c1
3. CC(C)C(Oc1cccc2ccccc12)C(=O)Nc1ccc(Cl)cc1 (stereo unspecified)
4. O=C(COc1cccc2ccccc12)Nc1ccc(Br)cc1

[out]
1: 8.00; 2: 8.70; 3: 6.92; 4: 6.12

For each of the molecules below, state pIC50.
1. CC(=O)c1cccc(CNC(=O)Nc2ccc(Cl)cc2)c1
2. C/C(=N\O)c1cccc(C(C)(C)NC(=O)Nc2ccc(Cl)c(Cl)c2)c1

[out]
[5.92, 7.02]
